# test-parameters: 333.15 K; 101.33 kPa; Liquid; Falling or rolling sphere viscometry
measurement-kind: viscosity (mPa·s)
Form entry: value (mPa·s) — number only.

viscosity recorded for this molecule, CCCCn1cc[n+](C)c1.CCOS(=O)(=O)[O-] [1-butyl-3-methyl-1H-imidazolium ethyl sulfate] , is 47.41

viscosity recorded for this molecule, CCCCn1cc[n+](C)c1.O=S(=O)([O-])C(F)(F)F [1-butyl-3-methylimidazolium trifluoromethanesulfonate] , is 22.81

viscosity recorded for this molecule, CCn1cc[n+](C)c1.O=S(=O)([N-]S(=O)(=O)C(F)(F)F)C(F)(F)F , is 11.84

viscosity recorded for this molecule, CCCC[n+]1ccn(C)c1.O=S(=O)([N-]S(=O)(=O)C(F)(F)F)C(F)(F)F , is 14.34

viscosity recorded for this molecule, CCCCn1cc[n+](C)c1.F[P-](F)(F)(F)(F)F [1-butyl-3-methylimidazolium hexafluorophosphate] , is 46.59
